Values compiled from patent US20250340623A1.

# Target entity: T1, 127-140aa
# T1 peptide: {Biotin-Ahx}-MPSEEGYQDYEPEA
# Test details: indirect ELISA on biotinylated 15-mer peptide, supernatant 1/100
Where no end group is shown, it is not given here. The star is where a group is joined. Biotin = O=C1N[C@H]2[C@H](CS[C@H]2CCCCC(=O)*)N1; Ahx = NCCCCCC(=O)O
Readout label: binding result

ACI-7079-2602G4-Ab4 (antibody, V domains shown, mouse hybridoma mAb; VH/VL only; also called 2602G4H1) VH: EVQLVESGGGLVQPKGSLKLSCAASGFTFKTYAMHWVRQAPGKGLEWVARIRSKGSDYATYYADSVKDRFTISRDDSQSMLYLQMNNLKTEDTAMYFCVRGGADSWFAYWGQGTLVTVST VL: QIVLTQSPAIMSASPGERITMTCTASSSVSYMHWYQQKSGTSPKRWIYDTSKLASGVPARFSGSGSGASYTLTISSMEAEDAATYYCQQWNRNPPTFGGGTQLAIK	binds
ACI-7079-2507B3-Ab1 (antibody, V domains shown, mouse hybridoma mAb; VH/VL only; also called 2507B3G8) VH: EVQLVESGGGLVQPKGSLKVSCAASGFTFKTYAMHWVRQAPGKGLEWVARIRSENSNFAKYYADSVKDRFTISRDDSQSMLYLQMHTLKTEDTAIYYCVRGYNGSSLDYWGQGTTLTVSS VL: QIVLTQSPAIMSAFPGERVTMTCSASSSVNYMHWYQQKSGTSPKRWIYDTSKLASGVPARFSGGGSGTSYSLTISNMEAEDAATYYCQQWRSNPPTFGGGTKLEIK	binds
ACI-7079-2605B3-Ab2 (antibody, V domains shown, mouse hybridoma mAb; VH/VL only; also called 2605B3D1) VH: EVQLVESGGGLVQPKGSLKLSCAASGFIFKTYAMHWVRQAPGKGLEWVARIRSKGGNYATYFADSVKDRFTISRDDSQNMLYLQVNNLKIEDTAMYFCVRGGNYSWFAYWGQGTLVTVSA VL: QIVLTQSPAIMSASPGEKVTMTCSASSSVTYMHWYQQKSGTSPKRWIYDTSQLASGVPARFSGSGSGTSHSLTISSMETEDAATYYCQQWTRNPPTFGGGTKLAIK	binds
